# experiment.summary: NCI Yeast Anticancer Drug Screen. Data for the cln2 rad14 strain (AID 165);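 further: 0% = growth equal to vehicle treated cultures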
# measurement.conditions: S. cerevisiae cln2 rad14 strain, at 50.0 µM, active compounds read high
# Description: Growth inhibition of yeast strains with defined genetic alterations is measured as a screen for potential anti-cancer activity. Selected strains with alterations in DNA damage repair or cell cycle control were exposed to compounds and growth inhibition was measured relative to vehicle treated controls. The strain used in this assay is cln2 rad14
Compounds without any hit were thinned out: in the full panel of roughly 79,000, 15% have a hit. Where a SMILES comes first, the peptide text is derived from it. The star is where a group is joined. Boc = CC(C)(C)OC(=O)*; OBn = c1ccc(CO*)cc1
Below is a list of entries, each paired with its recorded growth inhibition value.
experimental.endpoint: growth inhibition (%)

compound="CC(C)CC(NC(=O)OC(C)(C)C)C(=O)NC(CCC(=O)OCc1ccccc1)C(N)=O (stereo not drawn) (Boc-Leu-Glu(OBn)-NH2; configuration not given here)" quantity_unit=% result_number=19.9
compound="CC1CCC23C1CC(CC(=O)C2(C)O)C3(C)C (configuration not stated)" quantity_unit=% result_number=-49.4
compound=CCOCCOC(=O)/C=C/c1ccccc1 quantity_unit=% result_number=-46.8
compound=COc1nc(N)c(C(=O)CCl)c(=O)n1C quantity_unit=% result_number=0.35
compound=CC(C)(C)OC(=O)c1cccc(Br)c1 quantity_unit=% result_number=15.2
compound=O=C(O)C(Cc1ccccc1)C(=O)O.[NH2-].[NH2-].[Pt+2] quantity_unit=% result_number=13.1
compound=CCCCS(=O)(=O)CCCC quantity_unit=% result_number=0.6

---

Below is a list of entries, each paired with its recorded growth inhibition value.
# experiment.summary: NCI Yeast Anticancer Drug Screen. Data for the sgs1 mgt1 strain (AID 161);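 further: 0% = growth of cultures given vehicle only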
# measurement.conditions: S. cerevisiae sgs1 mgt1 strain, at 50.0 µM, active compounds read high
About 79,000 compounds went through this panel and 15% of them were active in at least one assay; those are over-represented in the sample as a whole.
experimental.endpoint: growth inhibition (%)

compound=O=C(O)Cn1c[n+](NC(=O)Cc2ccccc2)cn1 experimental_endpoint="growth inhibition" quantity_unit=% result_number=-25
compound=O=C(O)c1c(Br)c(Br)c(Br)c(Br)c1C(=O)Nc1ccc([N+](=O)[O-])cc1 experimental_endpoint="growth inhibition" quantity_unit=% result_number=3.35
compound="COC(=O)C(C)Oc1ccccc1 (stereo unspecified)" experimental_endpoint="growth inhibition" quantity_unit=% result_number=-9.4
compound=O=C1NC(=S)S/C1=C/c1cn(-c2ccccc2)nn1 experimental_endpoint="growth inhibition" quantity_unit=% result_number=-5.05
compound=Nc1ccc(P(=O)(O)c2ccc(N)cc2Br)c(Br)c1 experimental_endpoint="growth inhibition" quantity_unit=% result_number=18.4
compound=CCOC(=O)Cc1cc(=O)oc2cc(O)ccc12 experimental_endpoint="growth inhibition" quantity_unit=% result_number=4.1
compound="CC12CC(=O)OC(C1)C(=O)c1ccccc12 (stereo unspecified)" experimental_endpoint="growth inhibition" quantity_unit=% result_number=2.85
compound=CC(=O)Oc1c(OC(C)C)c(C)c(O[Si](C(C)C)(C(C)C)C(C)C)c2[nH]c3ccccc3c12 experimental_endpoint="growth inhibition" quantity_unit=% result_number=-23.2
compound=CC(=O)OC1=C(C)C2=C3OC(=O)C(C)=C3CC[C@@]2(C)[C@@H](Cl)[C@@H]1Cl experimental_endpoint="growth inhibition" quantity_unit=% result_number=-2.6
compound=Nc1ncnc(N)c1NC(=O)c1ccc(SCc2ccccc2)cc1 experimental_endpoint="growth inhibition" quantity_unit=% result_number=27.5
compound="COCCOCCOCCC(=O)NC1CC2CCC1(C)C2(C)C (stereo unspecified)" experimental_endpoint="growth inhibition" quantity_unit=% result_number=8.2
compound="COC(=O)C(O)C(O)C(O)C(O)C(O)CO (stereo unspecified)" experimental_endpoint="growth inhibition" quantity_unit=% result_number=0.25
compound=CCOC(=O)c1c(C#N)c2cnn(-c3ccccc3)c2n2cccc12 experimental_endpoint="growth inhibition" quantity_unit=% result_number=-2.25
compound=Clc1ccc(NC2=NCCN=C(Nc3ccc(Cl)cc3)SS2)cc1 experimental_endpoint="growth inhibition" quantity_unit=% result_number=39.8
compound=O=C(NC(=O)C(F)(F)C(F)(F)F)Nc1cc(F)ccc1F experimental_endpoint="growth inhibition" quantity_unit=% result_number=1.45
compound=C=C1c2ccccc2N(S(=O)(=O)c2ccc(C)cc2)C12CCCCC2 experimental_endpoint="growth inhibition" quantity_unit=% result_number=-10.2
compound="CC1(C)NN=C([N+](=O)[O-])C1c1ccccc1 (stereo unspecified)" experimental_endpoint="growth inhibition" quantity_unit=% result_number=7.2
compound=Cc1[nH]ccc(=O)c1OC(=O)C12CC3CC(CC(C3)C1)C2 experimental_endpoint="growth inhibition" quantity_unit=% result_number=36
compound=CC(C)(C)C(=O)OCCN(CCOC(=O)C(C)(C)C)C(=O)COC(=O)C(C)(C)C experimental_endpoint="growth inhibition" quantity_unit=% result_number=21.1
compound=CN(C)CCCNC(=O)CCNC(=O)c1cc(NC(=O)c2cc(NC(=O)c3cc(NC(=O)c4nccn4C)cn3C)cn2C)cn1C experimental_endpoint="growth inhibition" quantity_unit=% result_number=-17.2
compound=COC(=O)NS(=O)(=O)CC(=O)c1ccccc1 experimental_endpoint="growth inhibition" quantity_unit=% result_number=-1.55
compound=O=S=Nc1ccc([N+](=O)[O-])cc1Cl experimental_endpoint="growth inhibition" quantity_unit=% result_number=-2.9
compound=Cc1ccc(N(C(=O)CC(=O)N/N=C/c2ccccc2O)C(=O)c2ccccc2)cc1 experimental_endpoint="growth inhibition" quantity_unit=% result_number=-2.05
compound=CC(=O)c1sc2c(c1OC(=O)c1ccco1)c(=O)n(-c1ccccc1)c(=S)n2-c1ccccc1 experimental_endpoint="growth inhibition" quantity_unit=% result_number=23.7
compound=Cc1ccccc1NC(=O)C(=O)CC(=O)c1sc(Nc2ccccc2[N+](=O)[O-])nc1C experimental_endpoint="growth inhibition" quantity_unit=% result_number=-7.4
compound=C[C@@H]1C[C@H]2[C@@H]3CCC4=CC(=O)C=C[C@]4(C)[C@@]3(F)[C@@H](O)C[C@]2(C)[C@@]1(O)C(=O)CO experimental_endpoint="growth inhibition" quantity_unit=% result_number=-16.2
compound=O=C(C[n+]1cccc2cccc(O)c21)c1ccc2ccccc2c1 experimental_endpoint="growth inhibition" quantity_unit=% result_number=18.8
compound=Cc1ccc(CCCCCOc2ccc(C3=NCCO3)cc2)s1 experimental_endpoint="growth inhibition" quantity_unit=% result_number=22.4
compound=CCc1ccccc1NC(=O)Nc1ccc(C(=O)O)c(O)c1 experimental_endpoint="growth inhibition" quantity_unit=% result_number=27.4
compound=Cc1ccc(NC(=O)CC/C(CC(=O)C(C)(C)C)=N/NC(=O)C(N)=O)cc1C experimental_endpoint="growth inhibition" quantity_unit=% result_number=10.5
compound="O=c1[nH]c(=O)n(C2CC(O)C(CO)O2)cc1C#Cc1ccc(F)cc1 (stereo unspecified)" experimental_endpoint="growth inhibition" quantity_unit=% result_number=-15.2
compound=O=C(O)CCCCC(=O)c1cc(O)ccc1O experimental_endpoint="growth inhibition" quantity_unit=% result_number=2.55
compound=Cc1nc(N/N=C/c2ccccc2Cl)[nH]c(=O)c1CCO experimental_endpoint="growth inhibition" quantity_unit=% result_number=-17.4
compound=CCc1cccc(CC)c1Nc1nc(C)nc2c1cnn2C experimental_endpoint="growth inhibition" quantity_unit=% result_number=5.55
compound=CCc1ccc(N=Cc2cc(OC)c(OC)c(OC)c2)cc1 experimental_endpoint="growth inhibition" quantity_unit=% result_number=29.4
compound="COC1NC(=O)Oc2ccccc21 (stereo unspecified)" experimental_endpoint="growth inhibition" quantity_unit=% result_number=-8.95
compound="O=S1(=O)CCC(Br)c2ccccc2C1 (stereo unspecified)" experimental_endpoint="growth inhibition" quantity_unit=% result_number=-7
compound=Cc1cc(-n2nnc3ccccc3c2=O)on1 experimental_endpoint="growth inhibition" quantity_unit=% result_number=-17.1
compound=CCOC(=O)c1c[nH]c(=S)n(C)c1=O experimental_endpoint="growth inhibition" quantity_unit=% result_number=-6.65
compound="Cc1cccc2c1NC(O)c1cccn1C2=O (stereo unspecified)" experimental_endpoint="growth inhibition" quantity_unit=% result_number=5.55
compound="CCOc1ccc(NC(=O)CC2SC(N)=NC2=O)cc1 (stereo unspecified)" experimental_endpoint="growth inhibition" quantity_unit=% result_number=-1.9
compound=CC(C)(C)C1=CC(=N/N=c2\scc(-c3ccccc3)n2Cc2ccccc2)C=C(C(C)(C)C)C1=O experimental_endpoint="growth inhibition" quantity_unit=% result_number=-5.35
compound="COC(=O)C(Cc1ccccc1)NC(=O)C1CSC(C)(C)N1C=O (stereo unspecified)" experimental_endpoint="growth inhibition" quantity_unit=% result_number=21.6
compound=CCCCCCCCCCCCCCCCCC(=O)OCCCC experimental_endpoint="growth inhibition" quantity_unit=% result_number=-20.1
compound=CCCCCCCc1cc(OC(=O)c2c(C)cc(OC)cc2O)cc(O)c1C(=O)O experimental_endpoint="growth inhibition" quantity_unit=% result_number=8.65
compound=FC12CCC(F)(CC1)CC2 experimental_endpoint="growth inhibition" quantity_unit=% result_number=-7.5
